# reported EC50; entries follow
Biological target: T1, HGREM1-His (ACRO) (human, UniProt O60565 25-184)
T1 construct: Lys25-Asp184 of NP_037504 with C-terminal polyhistidine tag (ACRO GR1-H52H3); they are put here; also called hGREM1 (ACRO); human gremlin (ACRO)
T1 sequence: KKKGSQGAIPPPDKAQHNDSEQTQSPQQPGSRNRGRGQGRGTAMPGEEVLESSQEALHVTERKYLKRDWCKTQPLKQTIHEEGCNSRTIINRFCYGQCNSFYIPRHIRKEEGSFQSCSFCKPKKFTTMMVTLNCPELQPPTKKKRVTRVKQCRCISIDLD
Experiment: ELISA, coated hGREM1 (ACRO)
Answer with a number only, understood to be in ng/mL.

36F5 (antibody, V domains shown, mouse hybridoma antibody; also called hybridoma 36F5) VH: QVQLQQSGAELARPGASVKLSCKASGYSFTSSGIGWVKQRSGQGLEWIGEIYPRSGNTYNNEKFKGKATLTADKSSSTVYMELRSLTSEDSAVYFCVREAYSHHYYAMDYWGQGTSVTVFS VL: DVLMTQTPLSLPVSLGGQASISCRSSQSLLHSNGNTYLEWYLQKPGQSPKLLIYKVSNRFSGVPDRLSGSGSGTDFTLKISRVEAEDLGVYYCFQGSHVPFTFGSGTKLEIN
5.87

What value of EC50 has been recorded for this entry: 42B9 (antibody, V domains shown, mouse hybridoma antibody; also called hybridoma 42B9) VH: QVQLQQSGAELARPGASVKLSCKASGYTFTSYGIGWVKQRTGQGLEWIGEIYPRSGNTYNNEKFKGKATLTADKSSRTVYMELRSLISEDSAVYFCAREGYSNNYYAMDYWGQGTSVTVFS VL: DVLMTQTPLSLPVSLGDQASISCISSQSLVHSNGNTYLEWYLQKPGLSPKLLIYKVSNRFSGVPDRLSGSGSGTDFTLRISRVEAEDLGVYYCFQGSHVPFTFGSGTKLEIK 8.06

Also 69H5 (antibody, V domains shown, mouse hybridoma antibody; also called hybridoma 69H5) VH: EVQLQQSGAELVRPGASVKLSCTASGFNIKDDYMHWVKRRPEQGLEWIGWIDPENGDTEYASKFQGKATITADTSSNTAYLQLSSLTSEDTAVYYCTTWATVPDFDYWGQGTTLTVSS VL: DIVMTQSPSSLAMSVGQKVTMSCKSSQSLLNRSNQKNYLAWYQQKPGQSPKLLVHFTSTRESGVPDRFIGSGSGTDFTLTISNLQAEDLADYFCQQHYSTPFTFGSGTKLEIK , if possible. 106

Also 56C11 (antibody, V domains shown, mouse hybridoma antibody; also called hybridoma 56C11) VH: EVQLQQSGPELVKPGASVKISCKASGYTFTDFYMNWVKQSHGKSLEWIGDINPNNGGTSYNQKFKGKATLTVDKSSSTAYMELRSLTSEDSAVYYCARDPIYYDYDEVAYWGQGTLVTVSA VL: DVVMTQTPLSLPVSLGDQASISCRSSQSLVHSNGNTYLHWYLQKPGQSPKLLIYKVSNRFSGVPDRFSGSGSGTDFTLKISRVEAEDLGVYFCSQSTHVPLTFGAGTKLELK , if possible. 13.4

Also 67G11 (antibody, V domains shown, mouse hybridoma antibody; also called hybridoma 67G11) VH: QVQLQQSGAELARPGASVKLSCKASGYTFTSYGIGWVKQRTGQGLEWIGEIYPRSGNTYNNEKFKGKATLTADKSSRTVYMELRSLISEDSAVYFCAREGYSNNYYAMDYWGQGTSVTVFS VL: DVLMTQTPLSLPVSLGDQASISCRSSQSLVHSNGNTYLEWYLQKPGQSPKLLIYKVSNRFSGVPDRLSGSGSGTDFTLKISRVEAEDLGVYYCFQGSHVPFTFGSGTKLEIK , if possible. 7.84

The reported numbers originate from patent US20240294622A1.
